System: HepG2
Experiment: Cytotoxicity against human HepG2 cells after 72 hrs by CellTiter-Glo assay
Conditions: hepg2, 72 h
measure_name: Activity

COCC(=O)N[C@@H](C(=O)N1NCCC[C@H]1C(=O)N[C@@H](Cc1ccccc1)[C@@H](O)[C@H](C)C(=O)N[C@H]1CCN(C(C)=O)C1=O)[C@H](O)C(C)C    Non-toxic
COCC(=O)N[C@@H](C(=O)N1NCCC[C@H]1C(=O)N[C@@H](Cc1ccccc1)[C@@H](O)[C@H](C)C(=O)NC1CNC(=O)NC1=O)[C@H](O)C(C)C (stereo partly drawn)    Non-toxic
COCC(=O)N[C@@H](C(=O)N1NCCC[C@H]1C(=O)N[C@@H](Cc1ccccc1)[C@@H](O)[C@H](C)C(=O)N[C@H]1CCN(C(N)=O)C1=O)[C@H](O)C(C)C    Non-toxic
